Where do the numbers come from? From paper PMC3739880.

Biological target: S. cerevisiae Ddi1 (Saccharomyces cerevisiae, UniProt P40087)
Sequence (P40087 1-428): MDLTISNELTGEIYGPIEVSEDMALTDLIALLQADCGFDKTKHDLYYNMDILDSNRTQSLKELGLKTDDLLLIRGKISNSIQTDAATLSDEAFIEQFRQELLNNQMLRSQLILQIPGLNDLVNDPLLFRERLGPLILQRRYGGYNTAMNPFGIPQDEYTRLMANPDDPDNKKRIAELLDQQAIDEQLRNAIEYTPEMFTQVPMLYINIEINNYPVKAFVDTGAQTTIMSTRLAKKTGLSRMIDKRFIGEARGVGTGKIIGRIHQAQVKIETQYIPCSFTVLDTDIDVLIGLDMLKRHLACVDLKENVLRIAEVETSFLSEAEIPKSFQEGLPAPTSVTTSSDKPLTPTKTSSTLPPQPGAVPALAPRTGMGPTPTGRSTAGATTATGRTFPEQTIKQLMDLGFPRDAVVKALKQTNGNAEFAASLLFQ
Assay: Proteinase inhibitor assay
outcome.measure: pIC50
For clarity, pIC50 is expressed as the negative log10 of concentration in mol/L.

Exercise: // fetch pIC50 given entry `CC(C)CN(C[C@@H](O)[C@H](Cc1ccccc1)NC(=O)O[C@H]1CCOC1)S(=O)(=O)c1ccc(N)cc1`
Key: 5.55
